assay: Selectivity index, ratio of IC50 for rat L6 cells to IC50 for erythrocytic stage of chloroquine and pyrimethamine-resistant Plasmodium falciparum K1; type: toxicity, cell-based; conditions: read-out: Ratio IC50
Definition: the class of an entry is the range in low band: < 60; middle band: ≥ 60 and < 900; high band: ≥ 900 that contains its selectivity ratio.

Smiles String: COc1ccc(CCC(=O)NCCCNCCCCCCCCCCCCNCCCNC(=O)CCc2ccc(OC)c(OC)c2)cc1OC
Assigned Label: middle band

Qu. Which selectivity ratio band matches COc1ccc(CCC(=O)NCCCN(CCCCCCCCCCCCN(CCCNC(=O)CCc2ccc(OC)c(OC)c2)C(=O)OC(C)(C)C)C(=O)OC(C)(C)C)cc1OC ?
Ans. low band

Qu. Assign a category based on measured selectivity ratio for COc1ccc(OC)c(CCC(=O)NCCCNCCCCNCCCNC(=O)CCc2cc(OC)ccc2OC)c1 and give only the class name.
Ans. high band

Qu. For the record COc1ccc(CC(=O)NCCCNCCCCCCCCCCCCNCCCNC(=O)Cc2ccc(OC)cc2)cc1 , report the class its selectivity ratio corresponds to.
Ans. middle band

Qu. Lab note: sort O=C(NCCCNCCCCCCCCCCCCNCCCNC(=O)c1ccccc1O)c1ccccc1O into the matching selectivity ratio band.
Ans. low band

Qu. Record O=C(CCc1ccccc1O)NCCCNCCCCCCCCCCCCNCCCNC(=O)CCc1ccccc1O — which class?
Ans. high band

Qu. Class for O=C(NCCCNCCCCNCCCNC(=O)c1ccccc1)c1ccccc1 ?
Ans. middle band
